Please respond with reported Fold IC50 increase relative to wild-type for every item in the list.
# target under test: HIV-1 JR-CSF Env F317A (HIV-1 isolate JR-CSF) (UniProt P20871)
# assay explanation: cell-based or functional assay
Answers are plain numbers, in fold.

Entry PGT-126 (antibody, V domains shown) VH: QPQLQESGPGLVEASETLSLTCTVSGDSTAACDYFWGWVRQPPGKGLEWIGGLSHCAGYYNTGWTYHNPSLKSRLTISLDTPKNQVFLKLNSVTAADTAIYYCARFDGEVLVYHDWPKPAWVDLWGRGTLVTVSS VL: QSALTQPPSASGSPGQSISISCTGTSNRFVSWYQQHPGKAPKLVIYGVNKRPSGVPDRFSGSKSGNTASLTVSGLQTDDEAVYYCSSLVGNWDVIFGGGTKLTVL has what Fold IC50 increase relative to wild-type?
1

# ---- query binder ----
Entry PGT-123 (antibody, V domains shown) VH: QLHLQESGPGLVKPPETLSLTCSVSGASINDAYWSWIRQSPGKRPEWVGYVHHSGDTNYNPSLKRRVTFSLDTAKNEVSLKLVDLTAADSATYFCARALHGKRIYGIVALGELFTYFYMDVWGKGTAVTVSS VL: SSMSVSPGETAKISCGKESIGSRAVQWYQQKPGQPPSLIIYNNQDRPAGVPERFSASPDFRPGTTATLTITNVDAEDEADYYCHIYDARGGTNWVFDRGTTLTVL has what Fold IC50 increase relative to wild-type?
3.1

Cited source: patent US20200024330A1
